# testedOn: Cytochrome P450 1A2 (Homo sapiens)
# Sequence (P05177 whole entry): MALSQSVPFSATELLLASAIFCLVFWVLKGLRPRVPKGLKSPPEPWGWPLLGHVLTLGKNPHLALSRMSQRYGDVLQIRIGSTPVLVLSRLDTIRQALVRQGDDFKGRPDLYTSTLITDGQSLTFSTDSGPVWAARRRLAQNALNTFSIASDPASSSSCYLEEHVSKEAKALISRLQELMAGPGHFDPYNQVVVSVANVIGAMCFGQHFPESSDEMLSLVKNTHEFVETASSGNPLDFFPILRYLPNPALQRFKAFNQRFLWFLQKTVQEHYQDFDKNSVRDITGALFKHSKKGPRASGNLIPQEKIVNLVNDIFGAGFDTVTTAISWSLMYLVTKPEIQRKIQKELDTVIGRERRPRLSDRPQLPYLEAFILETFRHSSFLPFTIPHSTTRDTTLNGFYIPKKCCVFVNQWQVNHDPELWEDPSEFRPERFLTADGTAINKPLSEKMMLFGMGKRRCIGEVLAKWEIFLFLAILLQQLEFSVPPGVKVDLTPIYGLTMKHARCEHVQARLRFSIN
# methodNotes: ChEBML_1679936
pEC50: −log10 of the molar value.
assayReadout: pEC50

Ask: // returns reported pEC50 for input "Cc1nnc2sc(C(=O)NCc3ccc(-c4cccnc4F)cc3)c(N)c2c1C"
Result: < 4.30
